Target: UniProtKB P49841
Test: GSK3β kinase assay (Ser/Thr 09 peptide Z-lyte, FRET)
Settings: method text calls the value IC50
Rule: EC50 below 30 nM gives TRUE. Equal to or above 30 nM gives FALSE.

Cc1ncc(-c2ccc3cnc(NC(=O)N4CCC(N(C)CC(F)F)CC4)cc3c2)o1 [Compound 52]    FALSE
Cc1nnc(-c2ccc3cnc(NC(=O)N4[C@@H]5CC[C@H]4C[C@@H](NCCC(F)(F)F)C5)cc3c2)s1 [Compound 195]    FALSE
Cc1nnc(-c2ccc3cnc(NC(=O)C4CCN(CC(F)F)CC4)cc3c2)s1 [Compound 27]    TRUE
CC(C)CN1CCC(CC(=O)Nc2cc3cc(-c4cnn(C)c4)ccc3cn2)C1 (stereo not shown) [Compound 4]    TRUE
Cc1nnc(-c2ccc3cnc(NC(=O)N4CCC(NCCF)CC4)cc3c2)s1 [Compound 156]    FALSE

Prompt: Hi there! Is EC50 for Cc1nnc(-c2ccc3cnc(NC(=O)N4CCC(NCCC(F)(F)F)CC4)cc3c2)s1 [Compound 147] below 30 nM, do you know?
Response: FALSE

Prompt: Hi there! Is EC50 for CN1CCC(N(C)C(=O)Nc2cc3cc(-c4cn(C)nn4)cc(F)c3cn2)CC1 [Compound 228] below 30 nM, do you know?
Response: FALSE

---

Biological target: DYRK1A kinase (Homo sapiens (Human))
Assay: DYRK1A kinase assay (Ser/Thr 18 peptide Z-lyte, FRET)
Settings: DYRK1A kinase; method text calls the value IC50
MEASURED PROPERTY: EC50 (nM)
Form entry: value (nM) — number only.

CN[C@H]1CC[C@H](C(=O)Nc2cc3cc(-c4cnc(C)o4)ccc3cn2)CC1    5
Cc1nnc(-c2ccc3cnc(NC(=O)N4CC[C@@H](NC(C)C)[C@H](F)C4)cc3c2)s1    37

Prompt: I would be grateful if you could share the reported EC50 for Cc1nnc(-c2ccc3cnc(NC(=O)N4C5CCC4CN(C)C5)cc3c2)s1 .
Response: 10

---

Biological target: GSK3β kinase (Homo sapiens (Human), UniProt P49841)
Sequence (P49841 whole entry): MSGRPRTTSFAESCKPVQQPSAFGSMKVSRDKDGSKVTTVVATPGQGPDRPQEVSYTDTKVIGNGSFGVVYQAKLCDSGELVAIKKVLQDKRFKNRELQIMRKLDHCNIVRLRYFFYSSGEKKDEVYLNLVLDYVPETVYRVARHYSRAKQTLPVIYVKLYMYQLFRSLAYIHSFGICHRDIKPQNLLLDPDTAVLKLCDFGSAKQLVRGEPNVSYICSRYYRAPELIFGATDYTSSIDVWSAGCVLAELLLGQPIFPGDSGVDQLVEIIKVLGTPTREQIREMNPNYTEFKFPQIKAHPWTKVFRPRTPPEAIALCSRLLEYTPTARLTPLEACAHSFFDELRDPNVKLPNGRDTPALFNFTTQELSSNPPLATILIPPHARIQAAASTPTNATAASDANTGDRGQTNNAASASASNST
Assay: GSK3β kinase assay (Ser/Thr 09 peptide Z-lyte, FRET);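 note: Coumarin/fluorescein emission ratio converted to percent phosphorylation against unphosphorylated (0%) and phosphorylated (100%) controls, 1 h compound incubation at room temperature, 11-point threefold dilutions from 10 µM, run in duplicate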
Conditions: method text calls the value IC50
Catalogue of EC50 values
# output: numeric value plus its unit

Cc1ncc(-c2ccc3cnc(NC(=O)[C@H]4CC[C@H](CO)CC4)cc3c2)o1 [Compound 43]    66 nM

Prompt: I would be grateful if you could share the reported EC50 for Cc1ncc(-c2ccc3cnc(NC(=O)[C@H]4CC[C@H](N(C)CC(F)F)CC4)cc3c2)o1 [Compound 44] .
Response: 65 nM

Prompt: I would be grateful if you could share the reported EC50 for Cc1ncc(-c2ccc3cnc(NC(=O)[C@H]4CC[C@H](N(C)C5COC5)CC4)cc3c2)o1 [Compound 37] .
Response: 138 nM

Prompt: I would be grateful if you could share the reported EC50 for [2H]C([2H])([2H])N([C@H]1CC[C@H](C(=O)Nc2cc3cc(-c4cnn(C)c4)ccc3cn2)CC1)C([2H])([2H])[2H] [Compound 145] .
Response: 80 nM

---

System: Tau phosphorylation at Ser396 (pSer396), SH-SY5Y cells
Assay: Tau phosphorylation at Ser396 (pSer396) in SH-SY5Y cells, ELISA/western blot
Assay type: cell-based, human
Conditions: Homo sapiens; SH-SY5Y cells, overnight (16-18 h); read-out: pSer396 Tau EC50
pEC50: −log10 of the molar value.
Catalogue of pEC50 values

Cn1cc(-c2cc(F)c3cnc(NC(=O)[C@H]4CC[C@@H](N(C)C)CC4)cc3c2)cn1    < 5.00
[2H]c1c([2H])c(C(=O)Nc2cc3cc(-c4cnc(C)n4C)ccc3cn2)c([2H])c([2H])c1F    < 5.00
C[C@H]1CN(C)CCN1C(=O)Nc1cc2cc(-c3cnn(C)c3)ccc2cn1    < 5.00

Prompt: I would be grateful if you could share the reported pEC50 for [2H]C1([2H])N(c2cc(C(=O)Nc3cc4cc(-c5cncn5C)ccc4cn3)ccn2)C([2H])([2H])C([2H])([2H])C1([2H])[2H] .
Response: < 5.00

Prompt: I would be grateful if you could share the reported pEC50 for C[C@@H]1CN(C(=O)Nc2cc3cc(-c4cnn(C)c4)ccc3cn2)CCN1C .
Response: < 5.00

Prompt: I would be grateful if you could share the reported pEC50 for [2H]C1([2H])CCC([2H])([2H])N1c1cc(C(=O)Nc2cc3cc(-c4cnc(C)n4C)ccc3cn2)ccn1 .
Response: < 5.00

Prompt: I would be grateful if you could share the reported pEC50 for [2H]C([2H])([2H])c1ccc(C(=O)Nc2cc3cc(-c4cnc(C)n4C)ccc3cn2)cc1 .
Response: < 5.00

---

Biological target: UniProtKB Q13627
Assay: DYRK1A kinase assay (Ser/Thr 18 peptide Z-lyte, FRET)
Conditions: DYRK1A kinase; method text calls the value IC50
MEASURED PROPERTY: EC50 (nM)
Form entry: value (nM) — number only.

Answered examples (3):
Cc1nnc(-c2ccc3cnc(NC(=O)[C@H]4CC[C@H](NCCF)CC4)cc3c2)s1    6
Cc1nnc(-c2ccc3cnc(NC(=O)N4CCC(NCCF)CC4)cc3c2)s1    7
CC(C)CN1CCC(C(=O)Nc2cc3cc(-c4ccn(C)n4)ccc3cn2)CC1    376

Prompt: I would be grateful if you could share the reported EC50 for Cc1nnc(-c2ccc3cnc(NC(=O)[C@H]4CC[C@H](N(C)C)CC4)cc3c2)s1 .
Response: 5

Prompt: I would be grateful if you could share the reported EC50 for Cn1cc(-c2cc(F)c3cnc(NC(=O)[C@H]4CC[C@@H](N(C)C)CC4)cc3c2)cn1 .
Response: 846

Prompt: I would be grateful if you could share the reported EC50 for Cn1cc(-c2ccc3cnc(NC(=O)C4CCN(C(C)(C)C)CC4)cc3c2)cn1 .
Response: 7

Prompt: I would be grateful if you could share the reported EC50 for Cc1nnc(-c2ccc3cnc(NC(=O)N4[C@@H]5CC[C@H]4C[C@H](NCCC(F)(F)F)C5)cc3c2)s1 .
Response: 28

Prompt: I would be grateful if you could share the reported EC50 for Cc1nnc(-c2ccc3cnc(NC(=O)N4CCN(C(C)C)CC4)cc3c2)s1 .
Response: 22

Prompt: I would be grateful if you could share the reported EC50 for Cc1ncc(-c2ccc3cnc(NC(=O)[C@H]4CC[C@H](NCCF)CC4)cc3c2)o1 .
Response: 8

---

Catalogue of pEC50 values
System: Tau phosphorylation at Ser396 (pSer396), SH-SY5Y cells
Test: Tau phosphorylation at Ser396 (pSer396) in SH-SY5Y cells, ELISA/western blot
Type: cell-based, human
Conditions: Homo sapiens; SH-SY5Y cells, overnight (16-18 h); read-out: pSer396 Tau EC50
pEC50: −log10 of the molar value.

[2H]C1([2H])N(c2cc(C(=O)Nc3cc4cc(-c5cnc(C)n5C)ccc4cn3)ccn2)C([2H])([2H])C([2H])([2H])C1([2H])[2H]    < 5.00
[2H]c1c([2H])c([2H])c(C(=O)Nc2cc3cc(-c4cncn4C)ccc3cn2)c(F)c1[2H]    < 5.00

Read the next record carefully.
Prompt: # query: pEC50 | item [2H]c1c([2H])c([2H])c(C(=O)Nc2cc3cc(-c4cnc(C)n4C)ccc3cn2)c(Cl)c1[2H] | system: Tau phosphorylation at Ser396 (pSer396), SH-SY5Y cells
Response: < 5.00

---

Test system: Tau phosphorylation at Ser396 (pSer396), SH-SY5Y cells
Test: Tau phosphorylation at Ser396 (pSer396) in SH-SY5Y cells, ELISA/western blot;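 note: cell lysates probed for reduced Tau pSer396 via ELISA (colorimetric) or western blot (chemiluminescence), both with one shared pSer396 antibody, EC50 for lowering phosphorylation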
Assay type: cell-based, human
Conditions: Homo sapiens; SH-SY5Y cells, overnight (16-18 h); read-out: pSer396 Tau EC50
pEC50: −log10 of the molar value.
MEASURED PROPERTY: pEC50

[2H]C([2H])([2H])c1ccc(C(=O)Nc2cc3cc(-c4cncn4C)ccc3cn2)cc1    5.85
[2H]C1([2H])CCC([2H])([2H])N1c1cc(C(=O)Nc2cc3cc(-c4cncn4C)ccc3cn2)ccn1    < 5.00

Prompt: I would be grateful if you could share the reported pEC50 for [2H]c1c([2H])c(C(=O)Nc2cc3cc(-c4cncn4C)ccc3cn2)c([2H])c([2H])c1Cl .
Response: < 5.00

---

Catalogue of EC50 values
Biological target: DYRK1A kinase (Homo sapiens (Human), UniProt Q13627)
Experiment: DYRK1A kinase assay (Ser/Thr 18 peptide Z-lyte, FRET)
Details: DYRK1A kinase; method text calls the value IC50
Form entry: value (nM) — number only.

Answered examples (6):
CN(C)C1CCN(C(=O)Nc2cc3cc(-c4cnn(C)c4)ccc3cn2)CC1 [Compound 63]    17
Cc1ncc(-c2ccc3cnc(NC(=O)N4CCC(N(C)CC(F)F)CC4)cc3c2)o1 [Compound 52]    9
Cc1nnc(-c2ccc3cnc(NC(=O)N4CCC(N5CCN(C)CC5)CC4)cc3c2)s1 [Compound 129]    18
Cn1cc(-c2ccc3cnc(NC(=O)[C@H]4CC[C@H](N5CCOCC5)CC4)cc3c2)nn1 [Compound 100]    3
Cc1cn2c(n1)CN(C(=O)Nc1cc3cc(-c4nnc(C)s4)ccc3cn1)CC2 [Compound 58]    6
Cn1cc(-c2cc(F)c3cnc(NC(=O)[C@H]4CC[C@H](NCC(F)F)CC4)cc3c2)cn1 [Compound 103]    5

Read the next record carefully.
Prompt: I would be grateful if you could share the reported EC50 for Cc1ncc(-c2ccc3cnc(NC(=O)[C@H]4CC[C@H](NC(CF)CF)CC4)cc3c2)o1 [Compound 124] .
Response: 35
